Kindly supply the reported pEC50 values for the records listed here.
# system.name: Prostaglandin E2 receptor EP4 subtype (Mus musculus)
# Sequence (P32240 whole entry): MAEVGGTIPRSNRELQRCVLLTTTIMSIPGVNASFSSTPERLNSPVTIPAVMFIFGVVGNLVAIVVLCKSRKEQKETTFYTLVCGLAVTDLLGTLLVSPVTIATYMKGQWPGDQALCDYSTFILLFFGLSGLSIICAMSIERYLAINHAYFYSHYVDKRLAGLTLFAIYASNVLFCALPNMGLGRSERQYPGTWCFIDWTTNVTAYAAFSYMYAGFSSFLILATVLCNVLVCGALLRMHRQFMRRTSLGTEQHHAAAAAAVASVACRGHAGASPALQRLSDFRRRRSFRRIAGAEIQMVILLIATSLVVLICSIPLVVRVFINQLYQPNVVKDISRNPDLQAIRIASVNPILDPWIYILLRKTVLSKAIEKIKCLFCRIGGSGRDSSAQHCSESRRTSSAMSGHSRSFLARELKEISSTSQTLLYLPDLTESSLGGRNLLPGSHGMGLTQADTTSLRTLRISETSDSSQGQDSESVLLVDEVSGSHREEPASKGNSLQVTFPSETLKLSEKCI
# measurement.protocol: Effective concentration for increased intracellular c-AMP production by mouse Prostanoid EP4 receptor
pEC50 is defined as minus the log10 of a concentration measured in mol/L.

Noted for CCCCC[C@H](O)/C=C/[C@H]1[C@H](O)CC(=O)[C@@H]1CCSCCCC(=O)O : its pEC50 reads 8.44

# pEC50 (compound: COCc1cccc(C[C@H](O)/C=C/[C@@H]2[C@@H](C/C=C/CCCC(=O)O)[C@H](F)C[C@H]2O)c1 ) is 7.85

pEC50 in this record for COCc1cccc(C[C@H](O)/C=C/[C@@H]2[C@@H](CCCCCCC(=O)O)[C@H](Cl)C[C@H]2O)c1 : 6.80

What the record says about CCCCC[C@H](O)/C=C/[C@H]1[C@H](O)CC(=O)[C@@H]1CSCCCCC(=O)O : pEC50 is 6.00

----------
# system.name: Prostaglandin E2 receptor EP4 subtype (Mus musculus)
measured.attribute: pKi
Give only the number. pKi is defined as minus log10 of concentration in molar units.

Data point: Cc1cc(C[C@H](O)/C=C/[C@H]2[C@H](O)CC(=O)[C@@H]2CCSCCCC(=O)O)ccc1O ; pKi = 8.31

Per the record, COCc1cccc(C[C@H](O)/C=C/[C@@H]2[C@@H](C/C=C/CCCC(=O)O)[C@H](Cl)C[C@H]2O)c1 has pKi of 9.30

The compound identified as CCCCC[C@H](O)/C=C/[C@H]1[C@H](O)CC(=O)[C@@H]1CCSCCCC(=O)O registered its pKi at 9.30

Documented pKi of COCc1cccc(C[C@H](O)/C=C/[C@@H]2[C@@H](CCSCCCC(=O)O)[C@H](F)C[C@H]2O)c1 : 7.49

GET /value?item= CCCCC[C@H](O)/C=C/[C@H]1[C@H](O)CC(=O)[C@@H]1CCCCSCC(=O)O &field=pKi returns 8.68

pKi in this record for COCc1cccc(C[C@H](O)/C=C/[C@H]2[C@H](O)CC(=O)[C@@H]2CCSCCCC(=O)O)c1 : 9.15

Memo: COCc1cccc(C[C@H](O)/C=C/[C@@H]2[C@@H](CCCCCCC(=O)O)[C@H](Cl)C[C@H]2O)c1 , reported pKi: 8.57

pKi in this record for CCCCC[C@H](O)/C=C/[C@H]1[C@H](O)CC(=O)[C@@H]1CCCCCCC(=O)O [ALPROSTADIL] : 8.51

pKi in this record for Cc1cc(C[C@H](O)/C=C/[C@@H]2[C@@H](C/C=C/CCCC(=O)O)[C@H](Cl)C[C@H]2O)ccc1O : 8.11

----------
Kindly supply the reported Ki values for the records listed here.
The answer is to be given in nM; state only the numeric part.

Case COCc1cccc(C[C@H](O)/C=C/[C@@H]2[C@@H](CCSCCCC(=O)O)[C@H](F)C[C@H]2O)c1 , Prostaglandin E2 receptor EP2 subtype (Mus musculus, UniProt Q62053), Ki recorded as 3100

Form field Ki for item CCCCC[C@H](O)/C=C/[C@H]1[C@H](O)CC(=O)[C@@H]1CCCCCCC(=O)O on Prostaglandin E2 receptor EP2 subtype (Mus musculus, UniProt Q62053): 22

Record COCc1cccc(C[C@H](O)/C=C/[C@@H]2[C@@H](CCCCCCC(=O)O)[C@H](Cl)C[C@H]2O)c1 has Prostaglandin E2 receptor EP2 subtype (Mus musculus, UniProt Q62053) Ki equal to 370

Short answer on Prostaglandin E2 receptor EP2 subtype (Mus musculus, UniProt Q62053) for COCc1cccc(C[C@H](O)/C=C/[C@@H]2[C@@H](C/C=C/CCCC(=O)O)[C@H](F)C[C@H]2O)c1 , Ki: 58

Item CCCCC[C@H](O)/C=C/[C@H]1[C@H](O)CC(=O)[C@@H]1CCCSCCC(=O)O ; assay system Prostaglandin E2 receptor EP2 subtype (Mus musculus, UniProt Q62053); Ki reported as 340

Where these numbers come from: ChEMBL document CHEMBL1133894
